This section presents molecules with their documented %Inh values.
Test system: SGK2;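 further: KINOMEscan kinase panel screen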
Settings: concentration: 1 μM, replicates: in singlicate; n = 1

>  <molecule>
COc1cccc(-c2nc(-c3ccccc3)[nH]c2-c2ccncc2)c1

>  <measurementUnit>
%

>  <%Inh>
40

$$$$
>  <molecule>
Cc1ccccc1CC(=O)N1CCc2cc(-c3cn(C)c4ncnc(N)c34)ccc21

>  <measurementUnit>
%

>  <%Inh>
2

$$$$
>  <molecule>
COc1cc(Nc2nccc(N3CCC(NC(=O)Nc4ccc5c(c4)OCO5)C3)n2)cc(OC)c1OC (centres unmarked)

>  <measurementUnit>
%

>  <%Inh>
0

$$$$
>  <molecule>
Cc1cccc(Nc2nc(N[C@H]3CCCC[C@H]3N)ncc2C(N)=O)c1.Cl

>  <measurementUnit>
%

>  <%Inh>
4

$$$$
>  <molecule>
O=C(O)C(F)(F)F.O=c1[nH]ccc2nc(N[C@@H]3CCNC3)nc(Nc3cc(Cl)cc(Cl)c3)c12

>  <measurementUnit>
%

>  <%Inh>
96.4

$$$$
>  <molecule>
Cc1ccc(C)c(NC(=O)Nc2ccc(C)c(-c3ccc(C(=O)Nc4ccncc4)cc3)c2)c1

>  <measurementUnit>
%

>  <%Inh>
0

$$$$
>  <molecule>
O=C1NC(=O)C(c2ccccc2Cl)=C1Nc1cccc(Cl)c1

>  <measurementUnit>
%

>  <%Inh>
0

$$$$
>  <molecule>
CC(C)c1nc(-c2ccc(F)c(NS(=O)(=O)c3c(F)cccc3F)c2)c(-c2ccnc(Nc3ccc(N4CCOCC4)nc3)n2)s1

>  <measurementUnit>
%

>  <%Inh>
8

$$$$
>  <molecule>
Cc1ccc(-c2ccc3occ(-c4ccc(S(C)=O)cc4)c3c2)nn1 (centres unmarked)

>  <measurementUnit>
%

>  <%Inh>
0

$$$$
>  <molecule>
COc1cccc(C2=C(Nc3cccc(O)c3)C(=O)NC2=O)c1

>  <measurementUnit>
%

>  <%Inh>
0

$$$$
>  <molecule>
O=C(O)C(F)(F)F.O=c1[nH]ccc2nc(N[C@@H]3CCNC3)nc(Nc3ccc4c(c3)S(=O)(=O)CC4)c12

>  <measurementUnit>
%

>  <%Inh>
91.7

$$$$
>  <molecule>
N#CC1(c2cccc(C(=O)Nc3cccc(Oc4ccc5nc(NC(=O)C6CC6)sc5n4)c3)c2)CC1

>  <measurementUnit>
%

>  <%Inh>
0

$$$$
>  <molecule>
Cn1cc(-c2ccc3c(c2)CCN3C(=O)Cc2cc(F)cc(C(F)(F)F)c2)c2c(N)ncnc21

>  <measurementUnit>
%

>  <%Inh>
0

$$$$
>  <molecule>
CN(C)c1ncnc2nc[nH]c12

>  <measurementUnit>
%

>  <%Inh>
23

$$$$
>  <molecule>
COc1ccc(C2=C(Nc3cccc(O)c3)C(=O)NC2=O)cc1

>  <measurementUnit>
%

>  <%Inh>
11

$$$$
>  <molecule>
Cc1cc(-c2ccnc(Nc3cccc(C#N)c3)n2)cc(C)c1O

>  <measurementUnit>
%

>  <%Inh>
29

$$$$
>  <molecule>
O=C(Nc1n[nH]c2cc(-c3cccs3)ccc12)C1CC1

>  <measurementUnit>
%

>  <%Inh>
0

$$$$
>  <molecule>
COc1ccc(C)c(Nc2ccnc(Nc3ccc(-c4cnc[nH]4)cc3)n2)c1.Cl

>  <measurementUnit>
%

>  <%Inh>
0

$$$$
>  <molecule>
O=C(Nc1n[nH]c2nc(-c3ccccc3)ccc12)C1CC1

>  <measurementUnit>
%

>  <%Inh>
15

$$$$
>  <molecule>
Cc1ccc(Nc2ccnc(Nc3ccc(C)c(F)c3)n2)cc1O.Cl

>  <measurementUnit>
%

>  <%Inh>
0

$$$$
>  <molecule>
COc1cccc(NC(=O)NCCNc2ccnc(Nc3ccc(F)cc3)n2)c1

>  <measurementUnit>
%

>  <%Inh>
12

$$$$
>  <molecule>
CSc1ccc(NC2=C(c3ccc(Cl)cc3)C(=O)NC2=O)cc1

>  <measurementUnit>
%

>  <%Inh>
0

$$$$
>  <molecule>
CNc1nccc(-c2ccc3c(N)n[nH]c3c2)n1

>  <measurementUnit>
%

>  <%Inh>
6

$$$$
>  <molecule>
CS(=O)(=O)c1cccc(CNc2nc(Nc3ccc4c(c3)CCC(=O)N4)ncc2C(F)(F)F)c1

>  <measurementUnit>
%

>  <%Inh>
0

$$$$
>  <molecule>
Fc1cc(Cl)ccc1Nc1ccnc2cc(-c3ccc(CN4CCOCC4)o3)ccc12

>  <measurementUnit>
%

>  <%Inh>
6

$$$$
>  <molecule>
Cn1cc(-c2ccc3c(c2)CCN3C(=O)Cc2cc(F)cc(F)c2F)c2c(N)ncnc21

>  <measurementUnit>
%

>  <%Inh>
4

$$$$
>  <molecule>
COc1cc(Nc2nccc(N3CCC(NS(=O)(=O)c4ccc(NC(C)=O)cc4)CC3)n2)cc(OC)c1OC

>  <measurementUnit>
%

>  <%Inh>
15

$$$$
>  <molecule>
Cl.Cl.NC(CNC(=O)c1cc(Br)c(-c2ccnc3[nH]ccc23)s1)c1ccccc1 (centres unmarked)

>  <measurementUnit>
%

>  <%Inh>
16

$$$$
>  <molecule>
CC(=O)Nc1cn2nc(Oc3cccc(NC(=O)c4cccc(C(F)(F)F)c4)c3)ccc2n1

>  <measurementUnit>
%

>  <%Inh>
1

$$$$
